Ref: patent US5190741A

Please provide measured tissue uptake at 12 h for the entries that follow.
Assay info: Tissue distribution in Swiss nu/nu SSCUP mice bearing Dau
Assay type: in vivo, human
Measurement conditions: mouse, eye, iv, 3 umol/animal; 12 h; read-out: eye % ID/g
Record the value in %ID/g, omitting the unit from your answer.

Q: Record request: tissue uptake at 12 h value, item CCNCCNC(=O)c1ccc(I)cc1 [Derivative B, N-(2-ethylaminoethyl) 4-iodo benzamide]
A: 0.01

Q: Record request: tissue uptake at 12 h value, item CCN(CC)CCNC(=O)c1ccc(I)cc1 [Derivative A, N-(2-diethylaminoethyl) 4-iodo benzamide]
A: 0.04

---

Please provide measured tissue uptake at 4 h for the entries that follow.
Assay info: Tissue distribution in C57 BL6 mice bearing B16
Assay type: in vivo, mouse
Measurement conditions: mouse, eye, iv, 3 umol/animal, 4 h; read-out: eye % ID/g
Description: The study of the tissue distribution of the ^125 I labelled compounds was performed in mice bearing grafted melanomas (cf. autoradiograms above). […] The animals are sacrificed at different time intervals of 1 to 24 hours after the injection. The blood is collected and the principal organs are excised. Aliquots are weighed and the radioactivity of the samples is measured in a […] 1191 counter (analytic tracer). The counting yield for iodine 125 is 60%. […]
Record the value in %ID/g, omitting the unit from your answer.

Q: Record request: tissue uptake at 4 h value, item CCN(CC)CCNC(=O)c1ccc(I)cc1 [Derivative A, N-(2-diethylaminoethyl) 4-iodo benzamide]
A: 12.4

Q: Record request: tissue uptake at 4 h value, item CCNCCNC(=O)c1ccc(I)cc1 [Derivative B, N-(2-ethylaminoethyl) 4-iodo benzamide]
A: 0.42

---

Assay info: Tissue distribution in C57 BL6 mice bearing B16
Assay type: in vivo, mouse
Measurement conditions: mouse, intestine, iv, 3 umol/animal; 4 h; read-out: intestine % ID/g
Observed property: tissue uptake at 4 h (%ID/g)
Record the value in %ID/g, omitting the unit from your answer.

Q: Record request: tissue uptake at 4 h value, item CCN(CC)CCNC(=O)c1ccc(I)cc1 [Derivative A, N-(2-diethylaminoethyl) 4-iodo benzamide]
A: 2.8

---

Assay info: Tissue distribution in C57 BL6 mice bearing B16
Format: in vivo, mouse
Measurement conditions: mouse, brain, iv, 3 umol/animal, 6 h; read-out: brain % ID/g
Please provide measured tissue uptake at 6 h for the entries that follow.
Record the value in %ID/g, omitting the unit from your answer.

Q: Record request: tissue uptake at 6 h value, item CCNCCNC(=O)c1ccc(I)cc1 [Derivative B, N-(2-ethylaminoethyl) 4-iodo benzamide]
A: 0.5

Q: Record request: tissue uptake at 6 h value, item CCN(CC)CCNC(=O)c1ccc(I)cc1 [Derivative A, N-(2-diethylaminoethyl) 4-iodo benzamide]
A: 0.32

---

Assay info: Tissue distribution in Swiss nu/nu SSCUP mice bearing Beu
Format: in vivo, human
Measurement conditions: mouse, brain, iv, 3 umol/animal, 4 h; read-out: brain % ID/g
Observed property: tissue uptake at 4 h
Write your answer as a measured quantity: the number, then the unit.

Q: Record request: tissue uptake at 4 h value, item CCN(CC)CCNC(=O)c1ccc(I)cc1 [Derivative A, N-(2-diethylaminoethyl) 4-iodo benzamide]
A: 0.78 %ID/g

---

Assay info: Tissue distribution in Swiss nu/nu SSCUP mice bearing Dau
Format: in vivo, human
Measurement conditions: mouse, submaxillary glands, iv, 3 umol/animal; 4 h; read-out: submaxillary glands % ID/g
Observed property: tissue uptake at 4 h (%ID/g)
Record the value in %ID/g, omitting the unit from your answer.

Q: Record request: tissue uptake at 4 h value, item CCNCCNC(=O)c1ccc(I)cc1 [Derivative B, N-(2-ethylaminoethyl) 4-iodo benzamide]
A: 1.68

Q: Record request: tissue uptake at 4 h value, item CCN(CC)CCNC(=O)c1ccc(I)cc1 [Derivative A, N-(2-diethylaminoethyl) 4-iodo benzamide]
A: 1.5

---

Assay info: Tissue distribution in C57 BL6 mice bearing B16
Assay type: in vivo, mouse
Measurement conditions: mouse, spleen, iv, 3 umol/animal; 1 h; read-out: spleen % ID/g
Protocol: The study of the tissue distribution of the ^125 I labelled compounds was performed in mice bearing grafted melanomas (cf. autoradiograms above). […] The animals are sacrificed at different time intervals of 1 to 24 hours after the injection. The blood is collected and the principal organs are excised. Aliquots are weighed and the radioactivity of the samples is measured in a […] 1191 counter (analytic tracer). The counting yield for iodine 125 is 60%. […]
Observed property: tissue uptake at 1 h (%ID/g)
Record the value in %ID/g, omitting the unit from your answer.

Q: Record request: tissue uptake at 1 h value, item CCN(CC)CCNC(=O)c1ccc(I)cc1 [Derivative A, N-(2-diethylaminoethyl) 4-iodo benzamide]
A: 5.91

---

Assay info: Tissue distribution in C57 BL6 mice bearing B16
Assay type: in vivo, mouse
Measurement conditions: mouse, plasma, iv, 3 umol/animal, 24 h; read-out: plasma % ID/g
Observed property: tissue uptake at 24 h (%ID/g)
Record the value in %ID/g, omitting the unit from your answer.

Q: Record request: tissue uptake at 24 h value, item CCNCCNC(=O)c1ccc(I)cc1 [Derivative B, N-(2-ethylaminoethyl) 4-iodo benzamide]
A: 0.02

Q: Record request: tissue uptake at 24 h value, item CCN(CC)CCNC(=O)c1ccc(I)cc1 [Derivative A, N-(2-diethylaminoethyl) 4-iodo benzamide]
A: 0.024

---

Assay info: Tissue distribution in Swiss nu/nu SSCUP mice bearing Beu
Assay type: in vivo, human
Measurement conditions: mouse, tumor, iv, 3 umol/animal, 2 h; read-out: tumor % ID/g
Observed property: tissue uptake at 2 h (%ID/g)
Record the value in %ID/g, omitting the unit from your answer.

Q: Record request: tissue uptake at 2 h value, item CCN(CC)CCNC(=O)c1ccc(I)cc1 [Derivative A, N-(2-diethylaminoethyl) 4-iodo benzamide]
A: 3.17

---

Please provide measured tissue uptake at 4 h for the entries that follow.
Assay info: Tissue distribution in Swiss nu/nu SSCUP mice bearing Dau
Type: in vivo, human
Measurement conditions: mouse, tumor, iv, 3 umol/animal, 4 h; read-out: tumor % ID/g
Write your answer as a measured quantity: the number, then the unit.

Q: Record request: tissue uptake at 4 h value, item CCN(CC)CCNC(=O)c1ccc(I)cc1 [Derivative A, N-(2-diethylaminoethyl) 4-iodo benzamide]
A: 0.45 %ID/g

Q: Record request: tissue uptake at 4 h value, item CCNCCNC(=O)c1ccc(I)cc1 [Derivative B, N-(2-ethylaminoethyl) 4-iodo benzamide]
A: 0.93 %ID/g

---

Please provide measured tissue uptake at 1 h for the entries that follow.
Assay info: Tissue distribution in C57 BL6 mice bearing B16
Format: in vivo, mouse
Measurement conditions: mouse, kidney, iv, 3 umol/animal, 1 h; read-out: kidney % ID/g
Description: The study of the tissue distribution of the ^125 I labelled compounds was performed in mice bearing grafted melanomas (cf. autoradiograms above). […] The animals are sacrificed at different time intervals of 1 to 24 hours after the injection. The blood is collected and the principal organs are excised. Aliquots are weighed and the radioactivity of the samples is measured in a […] 1191 counter (analytic tracer). The counting yield for iodine 125 is 60%. […]
Record the value in %ID/g, omitting the unit from your answer.

Q: Record request: tissue uptake at 1 h value, item CCN(CC)CCNC(=O)c1ccc(I)cc1 [Derivative A, N-(2-diethylaminoethyl) 4-iodo benzamide]
A: 8.56

Q: Record request: tissue uptake at 1 h value, item CCNCCNC(=O)c1ccc(I)cc1 [Derivative B, N-(2-ethylaminoethyl) 4-iodo benzamide]
A: 14.4

---

Assay info: Tissue distribution in Swiss nu/nu SSCUP mice bearing Dau
Assay type: in vivo, human
Measurement conditions: mouse, submaxillary glands, iv, 3 umol/animal; 1 h; read-out: submaxillary glands % ID/g
Please provide measured tissue uptake at 1 h for the entries that follow.
Record the value in %ID/g, omitting the unit from your answer.

Q: Record request: tissue uptake at 1 h value, item CCN(CC)CCNC(=O)c1ccc(I)cc1 [Derivative A, N-(2-diethylaminoethyl) 4-iodo benzamide]
A: 4.75

Q: Record request: tissue uptake at 1 h value, item CCNCCNC(=O)c1ccc(I)cc1 [Derivative B, N-(2-ethylaminoethyl) 4-iodo benzamide]
A: 4.28

---

Please provide measured tissue uptake at 4 h for the entries that follow.
Assay info: Tissue distribution in Swiss nu/nu SSCUP mice bearing Dau
Type: in vivo, human
Measurement conditions: mouse, brain, iv, 3 umol/animal, 4 h; read-out: brain % ID/g
Write your answer as a measured quantity: the number, then the unit.

Q: Record request: tissue uptake at 4 h value, item CCNCCNC(=O)c1ccc(I)cc1 [Derivative B, N-(2-ethylaminoethyl) 4-iodo benzamide]
A: 0.63 %ID/g

Q: Record request: tissue uptake at 4 h value, item CCN(CC)CCNC(=O)c1ccc(I)cc1 [Derivative A, N-(2-diethylaminoethyl) 4-iodo benzamide]
A: 0.51 %ID/g

---

Assay info: Tissue distribution in Swiss nu/nu SSCUP mice bearing Beu
Assay type: in vivo, human
Measurement conditions: mouse, blood, iv, 3 umol/animal, 6 h; read-out: blood % ID/g
Observed property: tissue uptake at 6 h (%ID/g)
Record the value in %ID/g, omitting the unit from your answer.

Q: Record request: tissue uptake at 6 h value, item CCN(CC)CCNC(=O)c1ccc(I)cc1 [Derivative A, N-(2-diethylaminoethyl) 4-iodo benzamide]
A: 0.13
